Record form. Attribute: Plant response rating, Blackgrass. Fill in for each entry.
System: blackgrass
Test: Test A postemergence herbicide test
Assay type: in vivo, Alopecurus myosuroides
Settings: 125 g ai/ha, 0 to 100 scale, 0 no effect, 100 complete control
Description: At the same time, plants selected from these crop and weed species and also blackgrass (Alopecurus myosuroides), and galium (catchweed bedstraw, Galium aparine) were planted in pots containing the same blend of loam soil and sand and treated with postemergence applications of test chemicals formulated in the same manner. Plants ranged in height from 2 to 10 cm and were in the one- to two-leaf stage for the postemergence treatment. […]
The answer should be a number; do not append a unit.

Bench note: what Plant response rating, Blackgrass did Cc1cc(C2CNC(=O)C2C(=O)Nc2ccccc2Cl)ccc1F (racemic) [Compound 143] show?
0

Bench note: what Plant response rating, Blackgrass did O=C1NCC(c2cccc(C(F)(F)F)c2)C1C(=O)Nc1ncc(Cl)s1 (racemic) [Compound 113] show?
0

Bench note: what Plant response rating, Blackgrass did O=C1NCC(c2cccc(C(F)(F)F)c2)C1C(=O)Nc1nncs1 (racemic) [Compound 111] show?
0

Bench note: what Plant response rating, Blackgrass did O=C1NCC(c2cccc(OC(F)(F)C(F)F)c2)C1C(=O)Nc1ccccc1F (racemic) [Compound 121] show?
60
